Target: recombinant human DGAT1 (hDGAT1) (Homo sapiens, UniProt O75907)
Construct: host or cells: Sf9 insect cells (baculovirus expression system), used as membrane preparation
Sequence (O75907 whole entry): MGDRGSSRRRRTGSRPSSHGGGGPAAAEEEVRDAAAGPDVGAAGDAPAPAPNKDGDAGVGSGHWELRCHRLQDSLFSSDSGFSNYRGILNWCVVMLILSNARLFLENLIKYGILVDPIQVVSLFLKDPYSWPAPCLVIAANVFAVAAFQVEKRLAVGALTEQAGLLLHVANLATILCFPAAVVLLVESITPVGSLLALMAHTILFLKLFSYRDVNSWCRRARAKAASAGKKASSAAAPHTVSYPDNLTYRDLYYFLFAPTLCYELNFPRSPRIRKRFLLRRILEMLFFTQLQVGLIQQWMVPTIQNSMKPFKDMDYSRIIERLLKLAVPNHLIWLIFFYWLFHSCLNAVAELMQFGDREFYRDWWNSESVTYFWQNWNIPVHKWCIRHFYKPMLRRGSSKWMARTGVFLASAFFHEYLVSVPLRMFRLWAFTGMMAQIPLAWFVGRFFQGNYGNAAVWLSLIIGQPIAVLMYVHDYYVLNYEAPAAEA
Assay: Membrane-based recombinant hDGAT1 inhibitory activity using radiometry method (Method B)
Assay type: biochemical
Conditions: values marked *: Method B (radiometry); Sf9 membranes expressing hDGAT1
With a cut-off of 20 nM, any IC50 strictly below it is called true; any IC50 meeting it or above is called false.

These solved cases illustrate the format of a correct answer.
[
  {
    "molecule": "O=C(Nc1ccc(N2CCC3(CC2)CC(C(=O)O)C3)nc1)c1nnc(Nc2ccccc2)o1 [Example B34]",
    "label_class": "false"
  },
  {
    "molecule": "O=C(O)CC1CC2(CCN(c3ccc(NC(=O)c4nnc(Nc5ccccc5F)o4)cn3)CC2)C1 [Example B33]",
    "label_class": "false"
  },
  {
    "molecule": "O=C(Nc1ccc(N2CCC3(CC2)CC(C(=O)O)C3)nc1)c1nnc(Nc2cccc(C(F)(F)F)c2)o1 [Example B37]",
    "label_class": "false"
  },
  {
    "molecule": "O=C(O)CC1CC2(CCN(c3ccc(NC(=O)c4nnc(Nc5ccc(F)c(F)c5)o4)cn3)CC2)C1 [Example B32]",
    "label_class": "true"
  },
  {
    "molecule": "O=C(Nc1ccc(N2CCC3(CC2)CC(C(=O)O)C3)nc1)c1nnc(Nc2ccc(Cl)cc2)o1 [Example B36]",
    "label_class": "false"
  }
]

Record O=C(Nc1ccc(N2CCC3(CC2)CC(C(=O)O)C3)nc1)c1nnc(Nc2cccc(F)c2)o1 [Example B35] : is its IC50 strictly below 20 nM?
true

Record O=C(O)CC1CC2(CCN(c3ccc(NC(=O)c4nnc(Nc5ccccc5F)o4)cc3)CC2)C1 [Example B38] : is its IC50 strictly below 20 nM?
false

Record O=C(O)CC1CC2(CCN(c3ccc(NC(=O)c4nnc(Nc5ccccc5)o4)cc3)CC2)C1 [Example B39] : is its IC50 strictly below 20 nM?
false

###

Assignment: determine reported log10(IC50) for the given molecules.
Molecular target: recombinant human DGAT1 (hDGAT1) (Homo sapiens)
Construct: host or cells: Sf9 insect cells (baculovirus expression system), used as membrane preparation
Assay: Membrane-based recombinant hDGAT1 inhibitory activity using LCMS method (Method A)
Assay type: biochemical
Conditions: Sf9 membranes expressing hDGAT1
Scale type: logarithmic (base 10). Underlying IC50 unit: nM.

[
  {
    "molecule": "O=C(Nc1ccc(C2CCC3(CC2)CC(C(=O)O)C3)cc1)c1nnc(Nc2ccc(F)c(F)c2)o1 (stereo not shown)",
    "log10(IC50)": 1.04
  },
  {
    "molecule": "O=C(O)CC1CCC2(CC1)CCN(c1ccc(NC(=O)c3nnc(Nc4ccc(F)c(F)c4)o3)cn1)CC2",
    "log10(IC50)": 1.36
  },
  {
    "molecule": "Nc1ncnc2c1C(=O)N(C1CCC3(CCC(CC(=O)O)CC3)CC1)CCO2 (stereo not shown)",
    "log10(IC50)": 3.40
  },
  {
    "molecule": "O=C(Nc1ccc(N2CCC3(CC2)CC3C(=O)O)nc1)c1nnc(Nc2ccc(C(F)(F)F)cc2)o1 (stereo not shown)",
    "log10(IC50)": 1.94
  },
  {
    "molecule": "O=C(O)CC1CCC2(CC1)CCC(c1ccc(NC(=O)c3nnc(Nc4ccc(F)c(F)c4)o3)cn1)CC2 (stereo not shown)",
    "log10(IC50)": 1.34
  }
]

Would you mind listing log10(IC50) for each of the following molecules?
1. O=C(Nc1ccc(N2CCC3(CC2)CC3C(=O)O)nc1)c1nnc(Nc2ccc(F)c(F)c2)o1 (stereo not shown)
2. O=C(O)CC1CC2(CCN(c3ccc(NC(=O)c4nnc(Nc5ccccc5)o4)cn3)CC2)C1
3. O=C(O)CC1CCC2(CC1)CCC(c1ccc(NC(=O)c3nnc(Nc4ccccc4)o3)cn1)CC2 (stereo not shown)
4. O=C(O)CC1CCC2(CC1)CCC(c1ccc(NC(=O)c3nnc(Nc4ccc(F)c(F)c4)o3)cc1)CC2 (stereo not shown)
5. O=C(Nc1ccc(C2CCC3(CC2)CC(C(=O)O)C3)cc1)c1nnc(Nc2cccc(Cl)c2)o1 (stereo not shown)

1.77
1.41
1.48
1.68
1.11
